system: NDM-1 (Klebsiella pneumoniae, UniProt C7C422)
Sequence (C7C422 whole entry, looked up, species assumed): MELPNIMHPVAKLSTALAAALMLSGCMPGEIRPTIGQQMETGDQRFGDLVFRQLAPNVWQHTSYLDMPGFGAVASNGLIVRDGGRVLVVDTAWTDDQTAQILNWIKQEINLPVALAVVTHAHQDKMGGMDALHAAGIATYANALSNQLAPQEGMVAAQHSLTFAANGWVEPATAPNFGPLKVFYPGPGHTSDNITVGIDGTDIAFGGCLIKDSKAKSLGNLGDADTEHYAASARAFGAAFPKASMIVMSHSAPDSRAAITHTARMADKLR
measurement-label: pIC50
Field pIC50 (float): negative decimal logarithm of the concentration in molar.

compound	pIC50
NCC1CCN(c2ccc(S(=O)(=O)NC[C@@H](N)CN)c(S(N)(=O)=O)c2-c2nn[nH]n2)CC1	8.51

Param item = `N[C@H]1CCCN(c2ccc(S(=O)(=O)C3CNC3)c(S(N)(=O)=O)c2-c2nnn[nH]2)C1` ; retrieve measured pIC50. 7.07

Param item = `NC[C@@H](O)CNS(=O)(=O)c1ccc(N2CCN(CCO)C(=O)C2)c(-c2nn[nH]n2)c1S(N)(=O)=O` ; retrieve measured pIC50. 8.63

Param item = `NC[C@@H](O)CNS(=O)(=O)c1ccc(N2CCC(c3c[nH]cn3)CC2)c(-c2nnn[nH]2)c1S(N)(=O)=O` ; retrieve measured pIC50. 9.64

Param item = `NS(=O)(=O)c1c(S(=O)(=O)N[C@@H]2CCNC2)ccc(N2CCCNC2=O)c1-c1nn[nH]n1` ; retrieve measured pIC50. 9.68

Param item = NC[C@@H](O)CNS(=O)(=O)c1ccc(N2CC[C@@H](CN)[C@@H](F)C2)c(-c2nn[nH]n2)c1S(N)(=O)=O (racemic) ; retrieve measured pIC50. 8.95

Param item = `NC[C@@H](O)CNS(=O)(=O)c1ccc(N[C@H]2C[C@H](N)C2)c(-c2nnn[nH]2)c1S(N)(=O)=O` ; retrieve measured pIC50. 7.18

====

Test system: P. aeruginosa MB9798 (efflux+, IMP-1 plasmid)
test-parameters: fold difference between efflux+ (MB9798) and efflux− (MB9799) strains
measurement-label: Efflux ratio

Examples with answers:
compound	obs-value
NCCC1CCN(c2ccc(S(=O)(=O)N[C@H](CN)CO)c(S(N)(=O)=O)c2-c2nn[nH]n2)CC1	1.00
CC1(C)CN(c2ccc(S(=O)(=O)NC[C@H](O)CN)c(S(N)(=O)=O)c2-c2nn[nH]n2)CCN1CCO	4.00
NCC1CCN(c2ccc(S(=O)(=O)C[C@H](O)CN)c(S(N)(=O)=O)c2-c2nn[nH]n2)CC1	2.00
NCCN1CCN(c2ccc(S(=O)(=O)NC[C@H](O)CN)c(S(N)(=O)=O)c2-c2nnn[nH]2)CC1	2.00
NCCNS(=O)(=O)c1ccc(N2CCN(CCCO)CC2)c(-c2nnn[nH]2)c1S(N)(=O)=O	4.00
CC1(O)CCN(c2ccc(S(=O)(=O)N[C@@H]3CCNC3)c(S(N)(=O)=O)c2-c2nnn[nH]2)CC1	1.00

// switching to the query compound
Param item = NS(=O)(=O)c1c(S(=O)(=O)N[C@@H]2CCNC2)ccc(N2CCCCC(O)C2)c1-c1nnn[nH]1 (stereo partly shown) ; retrieve measured Efflux ratio. 2.00

====

pIC50 values, listed per item
system: VIM-2 (Escherichia coli)
method: biochemical
test-parameters: VIM2 IC50, CCF2-FA fluorescence assay
Field pIC50 (float): negative decimal logarithm of the concentration in molar.

compound	pIC50
NC[C@@H](O)CNS(=O)(=O)c1ccc(N2CCC(C(N)CO)CC2)c(-c2nn[nH]n2)c1S(N)(=O)=O (single isomer, unassigned) [Example 180]	8.23

// switching to the query compound
Param item = NC[C@@H](O)CNS(=O)(=O)c1ccc(N[C@H]2C[C@H](N)C2)c(-c2nnn[nH]2)c1S(N)(=O)=O [Example 192] ; retrieve measured pIC50. 6.70
